# Tested on: FLU A (PR/8/34)
# Experiment: Flu A Neuraminidase Antiviral Assay
# Format: cell-based
Assignment: determine reported EC50 for the given compounds.

Here is how some compounds turned out for EC50.
Compound	Reported Property	Result
CN1C(=O)c2c(O)c(=O)ccn2N2C(c3c(F)cccc3F)C(CC(F)(F)F)CCC12 (single isomer, unassigned) [Compound 123C]	EC50	> 8.1 µM
CN1C(=O)c2c(O)c(=O)ccn2N2C1CCC1(CCC(C(F)(F)F)CC1)C2c1ccccc1 (single isomer, unassigned) [Compound 73B]	EC50	> 0.81 µM
Cc1cc(=O)c(O)c2n1N1C(c3ccccc3)C(CC(F)(F)F)CCC1N(C)C2=O (single isomer, unassigned) [Compound 132D]	EC50	> 0.81 µM

// switching to the query compound
Which EC50 value is on record for CN1C(=O)c2c(O)c(=O)ccn2N2C1CCCC2(C)c1ccncc1 (single isomer, unassigned) [Compound 31B] ?
> 8.1 µM

###

# Tested on: FLU A (PR/8/34)
# Experiment: Flu A Neuraminidase Antiviral Assay
# Format: cell-based
Assignment: determine reported EC50 for the given compounds.

Here is how some compounds turned out for EC50.
Compound	Result
CCN1C(=O)c2c(O)c(=O)ccn2N2C(c3ccccc3)C(CC3(C(F)(F)F)CC3)CCC12 (single isomer, unassigned) [Compound 97A]	> 0.81 µM
CCC1(c2ccccc2)CCCC2N(C)C(=O)c3c(O)c(=O)ccn3N21 (single isomer, unassigned) [Compound 22A]	> 8.1 µM

// switching to the query compound
Which EC50 value is on record for O=C1c2c(O)c(=O)ccn2N2C(c3ccccc3)CCCC2N1CC1CC1 (single isomer, unassigned) [Compound 56A] ?
> 8.1 µM

###

# Test system: FLU A (PR/8/34)
# Experiment: Flu A Neuraminidase Antiviral Assay
# Assay type: cell-based
Assignment: determine reported EC50 for the given compounds.

Here is how some compounds turned out for EC50.
Compound	EC50
CN1C(=O)c2c(O)c(=O)ccn2N2C(c3ccccc3)C(CC3CC3(F)F)CCC12 (single isomer, unassigned) [Compound 114A]	> 8.1 µM
CN1C(=O)c2c(O)c(=O)ccn2N2C1CCC1(CCC(F)(F)CC1)C2c1ccccc1 (single isomer, unassigned) [Compound 72A]	> 0.81 µM

Parameters: items (list). Returns: EC50 for each item.
1. CC1(c2ccccc2)CCCC2N(CC3CC4(CCC4)C3)C(=O)c3c(O)c(=O)ccn3N21 (single isomer, unassigned) [Compound 42A]
2. Cc1ccccc1C1C(CC2CC2(F)F)CCC2N(C)C(=O)c3c(O)c(=O)ccn3N12 (single isomer, unassigned) [Compound 88B]
3. Cc1cccnc1C1(C)CCCC2N(CC(F)(F)F)C(=O)c3c(O)c(=O)ccn3N21 (single isomer, unassigned) [Compound 44A]

["> 8.1 µM", "> 0.81 µM", "> 8.1 µM"]

Parameters: items (list). Returns: EC50 for each item.
1. Cc1ccccc1C1C(CCC(F)F)CCC2N(C)C(=O)c3c(O)c(=O)ccn3N12 (single isomer, unassigned) [Compound 103A]
2. CCN1C(=O)c2c(O)c(=O)cc(COC)n2N2C(c3ccccc3)C(CC(F)(F)F)CCC12 (centres unmarked) [Compound 131C]
3. O=C1c2c(O)c(=O)ccn2N2C(c3ccccc3)CCCC2N1CC1CC1 (single isomer, unassigned) [Compound 56C]

1: > 0.81 µM; 2: > 0.81 µM; 3: > 8.1 µM
